Origin of values: PubChem BioAssay (NCI)

System: EKVX NSCLC
Experiment: NCI tumour cell line growth inhibition, 48 h
Catalogue of molecules with associated TGI

Look over these answered cases.
{"columns": ["molecule", "TGI"],
 "data": [
  ["c1ccc(-c2[nH]ncc2-c2ccnc(-c3ccc(OCCn4ccnc4)cc3)c2)nc1", "> 25 µM"],
  ["O=C1c2cccc(Oc3ccccc3)c2C(=O)c2cccc(Oc3ccccc3)c21", "> 100 µM"],
  ["CC(=O)Nc1nc(Cl)cc(NCC2(CO)CCC2)n1", "> 100 µM"],
  ["CC(C)(CO)CNC(=O)c1ccc2[nH]c(O)c(N=Nc3ccc(S(N)(=O)=O)cc3)c2c1", "> 25 µM"],
  ["CN1CSC(=S)N(c2cccc(C(F)(F)F)c2)C1", "67.7 µM"],
  ["CSCC[C@@H](NC(=O)[C@H](CC(C)C)NC(=O)C(Cc1cnc[nH]1)NC(=O)CNC(=O)[C@@H](NC(=O)[C@H](C)NC(=O)[C@H](Cc1c[nH]c2ccccc12)NC(=O)[C@H](CCC(N)=O)NC(=O)[C@@H](N)CC(N)=O)C(C)C)C(N)=O (stereo partly drawn)", "> 100 µM"],
  ["CN(CCN1CCCC1)C1CCc2cc(Cl)c(Cl)cc2C1 (stereo not drawn)", "47.6 µM"],
  ["COc1ccc2c(c1)c(-c1nc(-c3c[nH]c4ncccc34)cs1)cn2CCCN1CCOCC1", "16.8 µM"],
  ["CCN(CC)Cc1cc(Nc2nc(NC3CCC(N(C)C)CC3)c3ccccc3n2)ccc1OC (stereo not drawn)", "25.5 µM"],
  ["CCNc1nc(O)c(/C=C2\\C=Nc3ncccc32)s1", "> 100 µM"]
]}

Ask | Using the record for COc1ccc(C(=O)c2cc(OC)c(OC)c(OC)c2OC)cc1O , report its TGI.
Reply | > 100 µM

Ask | Using the record for O=C1Oc2ccccc2C(=O)/C1=C1/C=C(c2ccccc2)SS1 , report its TGI.
Reply | > 100 µM

Ask | Using the record for CC1(C)CC(=O)C2=C(C1)C(c1ccccc1Cl)C1C(=O)CC(C)(C)CC1(O)O2 (stereo not drawn) , report its TGI.
Reply | > 100 µM

###

Tested on: HOP-62 NSCLC
Assay: NCI tumour cell line growth inhibition, 48 h
quantity name: TGI

Look over these answered cases.
{"columns": ["compound", "TGI"],
 "data": [
  ["O=[N+]([O-])c1ccc(Cl)c2c([N+](=O)[O-])cccc12", "> 10 µM"],
  ["O=C1CC(c2ccccc2)Oc2ccccc21 (stereo not given)", "> 100 µM"],
  ["CC(=O)Nc1nc(Cl)cc(NCC2(CO)CCC2)n1", "> 100 µM"],
  ["O=C(/C=C/c1ccc(O)c(O)c1)OCCc1ccc2ccccc2c1", "26.4 µM"],
  ["Cn1nc(-c2ccc(S(=O)(=O)/N=C(\\NN)Nc3ccc(Cl)cc3)s2)cc1C(F)(F)F", "32.3 µM"],
  ["COC(=O)CCC(NC(=S)N/N=C/c1cccs1)C(=O)OC (stereo not given)", "> 100 µM"]
]}

Ask | Using the record for CCCCCCCC(=O)OCC(COC(=O)C(C)(C)C)OC(=O)Cc1ccccc1 (stereo not given) , report its TGI.
Reply | > 100 µM

Ask | Using the record for CCOC(=O)CSc1nc(N)c2c(-c3ccccc3)c3c(nc2n1)CCCC3 , report its TGI.
Reply | > 100 µM

Ask | Using the record for O=c1c2c3c(sc2[nH]c(=S)n1-c1ccccc1)CCCc1ccc([N+](=O)[O-])cc1-3 , report its TGI.
Reply | > 100 µM

Ask | Using the record for COc1cc2c(cc1Nc1nc(N3CCc4ccccc43)c3cc[nH]c3n1)N(C(=O)CN(C)C)CC2 , report its TGI.
Reply | 9.46 µM
